target: Receptor-type tyrosine-protein kinase FLT3 (Homo sapiens) (UniProt P36888); test: inhibitors of Homo sapiens fms-like tyrosine kinase 3, primary HTS, cell-free, LANCE Ultra TR-FRET, NPC library from NCATS (AID 1117356); details: recombinant FLT3, LANCE Ultra TR-FRET kinase assay; at 20 µM
Sequence (P36888 whole entry, looked up): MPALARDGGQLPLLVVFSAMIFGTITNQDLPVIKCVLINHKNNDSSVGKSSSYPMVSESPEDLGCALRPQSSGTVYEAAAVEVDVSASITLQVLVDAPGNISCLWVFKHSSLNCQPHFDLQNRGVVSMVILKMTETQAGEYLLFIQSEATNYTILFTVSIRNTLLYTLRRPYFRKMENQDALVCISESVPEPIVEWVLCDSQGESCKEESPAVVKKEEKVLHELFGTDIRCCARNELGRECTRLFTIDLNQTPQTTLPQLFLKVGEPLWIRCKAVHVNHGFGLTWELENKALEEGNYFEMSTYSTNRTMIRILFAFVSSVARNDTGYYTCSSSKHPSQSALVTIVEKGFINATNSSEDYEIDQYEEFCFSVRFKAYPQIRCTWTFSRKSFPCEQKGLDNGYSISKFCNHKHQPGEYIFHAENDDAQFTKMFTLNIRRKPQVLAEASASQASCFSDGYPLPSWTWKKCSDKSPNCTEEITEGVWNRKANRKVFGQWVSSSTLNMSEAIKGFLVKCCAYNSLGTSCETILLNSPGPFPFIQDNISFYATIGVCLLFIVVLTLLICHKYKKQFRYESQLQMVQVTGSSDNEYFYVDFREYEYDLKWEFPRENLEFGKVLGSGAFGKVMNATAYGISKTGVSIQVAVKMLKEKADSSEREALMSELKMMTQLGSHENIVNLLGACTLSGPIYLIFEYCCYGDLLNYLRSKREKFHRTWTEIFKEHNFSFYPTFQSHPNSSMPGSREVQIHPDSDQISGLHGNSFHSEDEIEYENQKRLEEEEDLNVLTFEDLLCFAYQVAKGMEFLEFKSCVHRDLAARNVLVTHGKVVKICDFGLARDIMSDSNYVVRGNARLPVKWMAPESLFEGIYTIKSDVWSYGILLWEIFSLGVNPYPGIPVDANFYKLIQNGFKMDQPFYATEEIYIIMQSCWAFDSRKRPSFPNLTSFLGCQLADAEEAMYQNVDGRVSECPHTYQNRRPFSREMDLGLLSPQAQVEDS
Calls of active or inactive are those of the source. The rule behind the calls is not given here.
Your response should consist of one outcome taken from Y (active), N (inactive)

Input line: Which outcome was assigned to CC(C)(C)C1CCC(CC2=C(O)c3ccccc3C(=O)C2=O)CC1 (centres undefined) in this test?
Output line: N

Input line: # iterate: Cc1ccc(Nc2nccc(N(C)c3ccc4c(C)n(C)nc4c3)n2)cc1S(N)(=O)=O
Output line: Y

Input line: Same thing, different compound: O=c1[nH]c(=O)n([C@H]2C[C@H](O)[C@@H](CO)O2)cc1F
Output line: N

Input line: Also, COC(=O)[C@H]1[C@H]2C[C@@H]3c4[nH]c5cc(OC)ccc5c4CCN3C[C@H]2C[C@@H](OC(=O)/C=C/c2ccc(O)c(OC)c2)[C@@H]1OC please.
Output line: N

Input line: Can you handle COc1ccc2cc1Oc1ccc(cc1)C[C@H]1c3c(cc4c(c3Oc3cc5c(cc3OC)CCN(C)[C@@H]5C2)OCO4)CCN1C next?
Output line: N

Input line: CC(C)C[C@H](NC(=O)[C@H](CCc1ccccc1)NC(=O)CN1CCOCC1)C(=O)N[C@@H](Cc1ccccc1)C(=O)N[C@@H](CC(C)C)C(=O)[C@@]1(C)CO1 , same question.
Output line: N

Input line: Another compound: C[C@@]12C(=O)OC(=O)[C@]1(C)C1CCC2O1
Output line: N

Input line: Continue with NC(=NCCCCCCN=C(N)/N=C(\N)Nc1ccc(Cl)cc1)/N=C(\N)Nc1ccc(Cl)cc1
Output line: N

Input line: Try S=c1nc[nH]c2nc[nH]c12 next.
Output line: N

----------
So I've got a bunch of compounds here, and I need their inhibition values.
target: Receptor-type tyrosine-protein kinase FLT3 (Homo sapiens) (UniProt P36888); experiment: inhibitors of Homo sapiens fms-like tyrosine kinase 3, primary HTS, cell-free, LANCE Ultra TR-FRET, NPC library from NCATS (AID 1117356); settings: recombinant FLT3, LANCE Ultra TR-FRET kinase assay; inhibition; at 0.2 µM; stronger effect = higher value
Give the value; after it, write the unit.

Input line: I'd like to know its inhibition. The compound in question is S=c1nc[nH]c2nc[nH]c12
Output line: -36.3%

Input line: Another compound to check: O=C(CCl)c1ccc(Cl)cc1Cl
Output line: -30.4%

Input line: Likewise for CC(=O)Oc1ccc(C2(c3ccc(OC(C)=O)cc3)Oc3ccccc3NC2=O)cc1 ?
Output line: -18.2%

Input line: Also COc1ccc(-c2ccc3cc(C(=O)O)ccc3c2)cc1C12CC3CC(CC(C3)C1)C2 ?
Output line: -12.3%

Input line: Then what about the compound Oc1c(Cl)cc(Cl)c2cccnc12 ?
Output line: -28.1%

Input line: Same read-out for CC(C)C[C@H](NC(=O)[C@H](Cc1ccccc1)NC(=O)c1cnccn1)B(O)O ?
Output line: -26.9%

Input line: How about CC[C@@]1(O)C(=O)OCc2c1cc1n(c2=O)Cc2c-1nc1ccccc1c2/C=N/OC(C)(C)C ?
Output line: -33.4%

Input line: Try this compound too: O=[N+]([O-])c1ccc(O)c2ncccc12
Output line: -14.3%

Input line: Next: COc1c(C)c2c(c(O)c1C/C=C(\C)CCC(=O)OCCN1CCOCC1)C(=O)OC2
Output line: -7.13%

Input line: Same read-out for Cn1cnc([N+](=O)[O-])c1Sc1ncnc2nc[nH]c12 ?
Output line: -22.4%

Input line: Same question for CCN(CC)CCOc1ccc(/C(=C(\Cl)c2ccccc2)c2ccccc2)cc1 please.
Output line: -10.4%
